endpoint: melting point

[in] I would be grateful if you could share the reported melting point for CCOC(=O)CC[C@H](NC(=O)c1ccc(N2CCC(NC[C@H](O)c3ccc(O)c(NS(C)(=O)=O)c3)CC2)cc1)C(=O)OCC .
[out] > 75 °C (dec.)

[in] I would be grateful if you could share the reported melting point for O=C1NC(=O)C(=Cc2ccc(N3CCC(NC[C@H](O)COc4cccc5[nH]c(=O)[nH]c45)CC3)c(F)c2)S1 .
[out] 162 to 164 °C

[in] I would be grateful if you could share the reported melting point for O=C1NC(=O)C(Cc2ccc(N3CCC(NCC(O)COc4ccc(OCc5ccccc5)cc4)CC3)cc2)S1 (stereo not drawn) .
[out] > 70 °C (dec.)

[in] I would be grateful if you could share the reported melting point for CS(=O)(=O)Nc1cc(C(O)CNC2CCN(c3ccc(CC4SC(=O)NC4=O)cc3)CC2)ccc1O (stereo not drawn) [Example 84] .
[out] > 180 °C (dec.)

[in] I would be grateful if you could share the reported melting point for O=C1NC(=O)C(Cc2ccc(N3CCC(NC[C@H](O)c4ccc(O)c(NS(=O)(=O)c5ccccc5)c4)CC3)cc2)S1 (stereo partly drawn) .
[out] > 150 °C (dec.)

[in] I would be grateful if you could share the reported melting point for CCOC(=O)CNC(=O)c1ccc(N2CCC(NC[C@H](O)c3ccc(O)c(NS(C)(=O)=O)c3)CC2)cc1 .
[out] > 140 °C (dec.)

[in] I would be grateful if you could share the reported melting point for COc1ccc(C(=O)Nc2ccc(N3CCC(NC[C@H](O)COc4ccc(O)cc4)CC3)cc2)cc1OC .
[out] 77 to 84 °C

[in] I would be grateful if you could share the reported melting point for CC(C)S(=O)(=O)Nc1cc([C@@H](O)CNC2CCN(c3ccc(CC4SC(=O)NC4=O)cc3)CC2)ccc1O (stereo partly drawn) .
[out] > 175 °C (dec.)

[in] I would be grateful if you could share the reported melting point for CS(=O)(=O)Nc1cc([C@@H](O)CNC2CCN(c3ccc(-c4nnnn4CC(=O)O)cc3)CC2)ccc1O .
[out] > 210 °C (dec.)

[in] I would be grateful if you could share the reported melting point for CCOC(=O)CCc1ccc(N2CCC(NC[C@H](O)c3ccc(O)c(NS(C)(=O)=O)c3)CC2)cc1 .
[out] 76 to 78 °C

[in] I would be grateful if you could share the reported melting point for O=C1NC(=O)C(Cc2ccc(N3CCC(NC[C@H](O)c4cccc(Cl)c4)CC3)cc2)S1 (stereo partly drawn) .
[out] > 195 °C

[in] I would be grateful if you could share the reported melting point for CCOC(=O)[C@H](CC(C)C)NC(=O)c1ccc(N2CCC(NC[C@H](O)c3ccc(O)c(NS(C)(=O)=O)c3)CC2)cc1 .
[out] > 85 °C (dec.)

[in] I would be grateful if you could share the reported melting point for CS(=O)(=O)Nc1cc([C@@H](O)CNC2CCN(c3ccc(C(=O)O)cc3)CC2)ccc1O .
[out] > 85 °C (dec.)

[in] I would be grateful if you could share the reported melting point for CS(=O)(=O)Nc1cc([C@@H](O)CNC2CCN(c3ccc(CC(=O)O)cc3)CC2)ccc1O .
[out] > 140 °C (dec.)

[in] I would be grateful if you could share the reported melting point for Cc1ccc(OC[C@@H](O)CNC2CCN(c3ccc(CC4SC(=O)NC4=O)cc3)CC2)cn1 (stereo partly drawn) .
[out] 87 °C (dec.)

====

Please provide measured melting point for the entries that follow.
Counter-ions that a name gives are not always drawn.

[in] I would be grateful if you could share the reported melting point for O=C1NC(=O)C(Cc2ccc(N3CCC(NC[C@H](O)c4cccnc4)CC3)cc2)S1 (some centres unmarked) .
[out] 87 °C (dec.)

[in] I would be grateful if you could share the reported melting point for COC(=O)CNC(=O)c1ccc(N2CCC(NC[C@H](O)c3ccc(O)c(NS(C)(=O)=O)c3)CC2)cc1 .
[out] > 75 °C (dec.)

[in] I would be grateful if you could share the reported melting point for CC(C)(C)OC(=O)CN1C(=O)SC(Cc2ccc(N3CCC(NC[C@H](O)c4ccc(O)c(NS(C)(=O)=O)c4)CC3)cc2)C1=O (some centres unmarked) .
[out] 130 to 132 °C

[in] I would be grateful if you could share the reported melting point for CCOC(=O)C(=Cc1ccc(N2CCC(NC[C@H](O)c3ccc(O)c(NS(C)(=O)=O)c3)CC2)cc1)C(=O)O .
[out] > 170 °C (dec.)

[in] I would be grateful if you could share the reported melting point for CCOC(=O)[C@@H](NC(=O)c1ccc(N2CCC(NC[C@H](O)c3ccc(O)c(NS(C)(=O)=O)c3)CC2)cc1)C(C)C .
[out] > 85 °C (dec.)

[in] I would be grateful if you could share the reported melting point for CS(=O)(=O)Nc1cc(C(O)CNC2CCN(c3ccc(C=C4SC(=O)NC4=O)cc3Br)CC2)ccc1O (centres unmarked) .
[out] > 200 °C

[in] I would be grateful if you could share the reported melting point for COC(=O)[C@@H]1CCCN1C(=O)c1ccc(N2CCC(NC[C@H](O)c3ccc(O)c(NS(C)(=O)=O)c3)CC2)cc1 .
[out] > 80 °C (dec.)

[in] I would be grateful if you could share the reported melting point for CS(=O)(=O)Nc1cc(C(O)CNC2CCN(c3ccc(CC4NC(=O)NC4=O)cc3)CC2)ccc1O (centres unmarked) .
[out] > 105 °C (dec.)

[in] I would be grateful if you could share the reported melting point for CCOC(=O)Cn1nnnc1-c1ccc(N2CCC(NC[C@H](O)c3ccc(O)c(NS(C)(=O)=O)c3)CC2)cc1 .
[out] > 140 °C (dec.)

[in] I would be grateful if you could share the reported melting point for O=C1NC(=O)C(Cc2ccc(N3CCC(NC[C@H](O)COc4ccc(O)c(NS(=O)(=O)c5ccccc5)c4)CC3)cc2)S1 (some centres unmarked) .
[out] > 120 °C (dec.)

[in] I would be grateful if you could share the reported melting point for O=C1NC(=O)C(=Cc2ccc(N3CCC(NC[C@H](O)COc4cccc5[nH]c(=O)[nH]c45)CC3)cc2)S1 .
[out] > 240 °C (dec.)

[in] I would be grateful if you could share the reported melting point for CS(=O)(=O)Nc1cc([C@@H](O)CNC2CCN(c3ccc(-c4nnn(CC(=O)O)n4)cc3)CC2)ccc1O .
[out] > 240 °C (dec.)

[in] I would be grateful if you could share the reported melting point for CS(=O)(=O)Nc1cc([C@@H](O)CNC2CCN(c3ccc(C(=O)N[C@@H](Cc4ccccc4)C(=O)O)cc3)CC2)ccc1O (as salt: sodium) .
[out] > 160 °C (dec.)

[in] I would be grateful if you could share the reported melting point for CS(=O)(=O)Nc1cc([C@@H](O)CNC2CCN(c3ccc(COCC(=O)O)cc3)CC2)ccc1O .
[out] > 145 °C (dec.)

====

- experimental.system: human β3 adrenergic receptor (Homo sapiens)
- Construct: Full length β3 AR clones (402 amino acids) containing the last 6 amino acids of hβ3-AR are prepared; expressed in transfected cells; host or cells: CHO (Chinese hamster ovary) cells
- Sequence (P13945 whole entry): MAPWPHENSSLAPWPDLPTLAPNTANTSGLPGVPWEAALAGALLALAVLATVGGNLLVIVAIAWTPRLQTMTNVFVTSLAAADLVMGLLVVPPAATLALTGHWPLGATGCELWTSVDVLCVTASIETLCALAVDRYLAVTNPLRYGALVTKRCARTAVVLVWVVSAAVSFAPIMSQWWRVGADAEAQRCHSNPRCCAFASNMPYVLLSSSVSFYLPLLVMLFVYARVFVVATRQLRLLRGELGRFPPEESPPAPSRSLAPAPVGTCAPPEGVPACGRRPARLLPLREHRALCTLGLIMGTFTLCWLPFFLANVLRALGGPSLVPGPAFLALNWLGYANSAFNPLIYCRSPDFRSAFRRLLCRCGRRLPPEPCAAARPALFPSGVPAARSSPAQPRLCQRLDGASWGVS
- protocol.text: cAMP (SPA) response in CHO cells transfected with human β3 adrenergic receptor
- Format: cell-based
- Design: key: fraction of maximal isoproterenol (10^-5 M) response
- condition.context: maximal response relative to maximal response of isoproterenol at 10^-5 M
If the reported IA(β3) equals or exceeds 0.8, assign True. If not, assign False.

[in] Decide: IA(β3) of CS(=O)(=O)Nc1cc([C@@H](O)CNC2CCN(c3ccc(NS(=O)(=O)c4ccsc4C(=O)O)cc3)CC2)ccc1O >= 0.8?
[out] True

[in] Decide: IA(β3) of CS(=O)(=O)Nc1cc([C@@H](O)CNC2CCN(c3ccc(C(=O)N[C@H]4CCCCNC4=O)cc3)CC2)ccc1O >= 0.8?
[out] True

[in] Decide: IA(β3) of O=C1NC(=O)C(Cc2ccc(N3CCC(NC[C@H](O)COc4ccc(O)cc4)CC3)cc2)S1 (stereo partly shown) >= 0.8?
[out] True

[in] Decide: IA(β3) of CCOC(=O)c1ccc(S(=O)(=O)Nc2ccc(N3CCC(NC[C@H](O)c4ccc(O)c(NS(C)(=O)=O)c4)CC3)cc2)cc1 >= 0.8?
[out] True

[in] Decide: IA(β3) of CCCCCCNC(=O)Nc1ccc(S(=O)(=O)Nc2ccc(N3CCC(NC[C@H](O)COc4ccc(O)c5c4CCC(=O)N5)CC3)cc2)cc1 >= 0.8?
[out] True

[in] Decide: IA(β3) of CC(=O)Nc1ccc(S(=O)(=O)Nc2ccc(N3CCC(NC[C@H](O)COc4cccc5[nH]c6ccccc6c45)CC3)cc2)cc1 >= 0.8?
[out] False

[in] Decide: IA(β3) of CS(=O)(=O)Nc1cc([C@@H](O)CNC2CCN(c3ccc(NC(=O)CCC4CCCC4)cc3)CC2)ccc1O >= 0.8?
[out] True

[in] Decide: IA(β3) of CCCCOc1ccc(S(=O)(=O)Nc2ccc(N3CCC(NCC(O)COc4cccc5[nH]c6ccccc6c45)CC3)cc2)cc1 (stereo not shown) >= 0.8?
[out] False

[in] Decide: IA(β3) of COc1ccc(S(=O)(=O)Nc2ccc(N3CCC(NC[C@H](O)COc4ccc(O)c5c4CCC(=O)N5)CC3)cc2)cc1OC >= 0.8?
[out] True

[in] Decide: IA(β3) of O=C(CN1CCOCC1)Nc1ccc(N2CCC(NC[C@H](O)COc3cccc4[nH]c(=O)[nH]c34)CC2)cc1 >= 0.8?
[out] False

[in] Decide: IA(β3) of O=S(=O)(Nc1ccc(N2CCC(NCC(O)c3cccc(O)c3)CC2)cc1)c1ccc(Oc2ncc(C(F)(F)F)cc2Cl)cc1 (stereo not shown) >= 0.8?
[out] False

[in] Decide: IA(β3) of COc1ccc(C(=O)Nc2ccc(N3CCC(NC[C@H](O)COc4ccc(O)cc4)CC3)cc2)cc1OC >= 0.8?
[out] False

[in] Decide: IA(β3) of O=C(NCc1ccc(S(=O)(=O)Nc2ccc(N3CCC(NC[C@H](O)COc4ccccc4)CC3)cc2)s1)c1ccccc1 >= 0.8?
[out] False

[in] Decide: IA(β3) of COC(=O)[C@@H]1CCCN1C(=O)c1ccc(N2CCC(NC[C@H](O)c3ccc(O)c(NS(C)(=O)=O)c3)CC2)cc1 >= 0.8?
[out] True

[in] Decide: IA(β3) of CS(=O)(=O)Nc1cc([C@@H](O)CNC2CCN(c3ccc(-c4cc(=O)[nH][nH]4)cc3)CC2)ccc1O >= 0.8?
[out] True

[in] Decide: IA(β3) of CC(=O)Nc1ccc(S(=O)(=O)Nc2ccc(N3CCC(NC[C@H](O)COc4ccc(O)c5c4CCC(=O)N5)CC3)cc2)cc1 >= 0.8?
[out] True

[in] Decide: IA(β3) of CCOC(=O)/C=C/c1ccc(N2CCC(NC[C@H](O)c3ccc(O)c(NS(C)(=O)=O)c3)CC2)cc1 >= 0.8?
[out] True

[in] Decide: IA(β3) of CCCCCCNC(=O)Nc1ccc(S(=O)(=O)Nc2ccc(N3CCC(NC[C@H](O)c4ccc(O)c(NS(C)(=O)=O)c4)CC3)cc2)cc1 >= 0.8?
[out] True

[in] Decide: IA(β3) of O=C1CCc2c(OC[C@@H](O)CNC3CCN(c4ccc(CC5SC(=O)NC5=O)cc4)CC3)ccc(O)c2N1 (stereo partly shown) >= 0.8?
[out] True

[in] Decide: IA(β3) of CC(=O)Nc1ccc(S(=O)(=O)Nc2ccc(N3CCC(NCC(O)c4ccc(O)cc4)CC3)cc2)cc1 (stereo not shown) >= 0.8?
[out] True

[in] Decide: IA(β3) of CCOC(=O)CC(=O)Nc1ccc(N2CCC(NC[C@H](O)c3ccc(O)c(NS(C)(=O)=O)c3)CC2)cc1 >= 0.8?
[out] True

[in] Decide: IA(β3) of CC(=O)Nc1ccc(S(=O)(=O)Nc2ccc(N3CCC(NCC(O)c4ccc(O)cc4O)CC3)cc2)cc1 (stereo not shown) >= 0.8?
[out] False

[in] Decide: IA(β3) of COc1ccc(C(=O)Nc2ccc(N3CCC(NC[C@H](O)COc4cccc5[nH]c6ccccc6c45)CC3)cc2)cc1OC >= 0.8?
[out] False

[in] Decide: IA(β3) of CCCCCCCCS(=O)(=O)Nc1ccc(N2CCC(NCC(O)c3ccc(O)c(NS(C)(=O)=O)c3)CC2)cc1 (stereo not shown) >= 0.8?
[out] True

[in] Decide: IA(β3) of O=C1NC(=O)C(Cc2ccc(N3CCC(NC[C@H](O)c4cccc(Cl)c4)CC3)cc2)S1 (stereo partly shown) >= 0.8?
[out] False

[in] Decide: IA(β3) of CS(=O)(=O)Nc1cc([C@@H](O)CNC2CCN(c3ccc(-c4nnnn4CC(=O)O)cc3)CC2)ccc1O >= 0.8?
[out] True

[in] Decide: IA(β3) of COc1ccc(S(=O)(=O)Nc2ccc(N3CCC(NC[C@H](O)COc4ccccc4)CC3)cc2)cc1OC >= 0.8?
[out] False
